These data points were gathered from the supplement of paper PMC4862054.

- System: SK-BR-3
- method: normalised viability (% of control), CellTiter-Blue; higher = more viable cells (about 100 = DMSO control)
- recordedConditions: 10000 nM; incubation time: 72 h
measuredProperty: normalised viability (%)
# number only, unit % dropped from output

recordSmiles	targetOfAssay	unitSpec	normalised viability
Cc1c(C(=O)Nc2ccc(N3C[C@@H](C)O[C@@H](C)C3)nc2)cccc1-c1ccc(OC(F)(F)F)cc1	SK-BR-3	%	111
C[C@@H]1C[C@H]2[C@@H]3CCC4=CC(=O)C=C[C@]4(C)[C@@]3(F)[C@@H](O)C[C@]2(C)[C@@]1(O)C(=O)CO	SK-BR-3	%	93
CCN(CC)CCOc1ccc(C(=C(Cl)c2ccccc2)c2ccccc2)cc1	SK-BR-3	%	67.2

Consider now this further compound.
Notebook: pull reported normalised viability for SK-BR-3, entry "Nc1nc(Cl)nc2c1ncn2[C@@H]1O[C@H](CO)[C@@H](O)[C@@H]1F"
35.6

---

The entries below come with measured normalised viability values attached.
- Tested on: HDQ-P1
- method: normalised viability (% of control), CellTiter-Blue; higher = more viable cells (100 = DMSO, 0 = benzethonium chloride kill control)
- recordedConditions: incubation time: 72 h
# number only, unit % dropped from output

For orientation, consider the following solved cases.
compound	targetOfAssay	normalised viability (%)
O=NN(CCCl)C(=O)NC1CCCCC1 [Lomustine] (1 nM)	HDQ-P1	110
CO[C@H](C(=O)[C@@H](O)[C@@H](C)O)[C@@H]1Cc2cc3cc(O[C@H]4C[C@@H](O[C@@H]5C[C@@H](O)[C@H](O)[C@@H](C)O5)[C@H](O)[C@@H](C)O4)c(C)c(O)c3c(O)c2C(=O)[C@H]1O[C@H]1C[C@@H](O[C@@H]2C[C@@H](O)[C@@H](O[C@@H]3C[C@](C)(O)[C@H](O)[C@@H](C)O3)[C@@H](C)O2)[C@H](O)[C@@H](C)O1 [Plicamycin] (1 nM)	HDQ-P1	111
NC1(c2ccc(-c3nc4ccn5c(=O)[nH]nc5c4cc3-c3ccccc3)cc2)CCC1 [MK-2206] (0.1 nM)	HDQ-P1	113
C[C@@H]1C[C@H]2[C@@H]3CCC4=CC(=O)C=C[C@]4(C)[C@@]3(F)[C@@H](O)C[C@]2(C)[C@@]1(O)C(=O)CO [Dexamethasone] (1 nM)	HDQ-P1	92.9

Quick check: normalised viability of O=C(O)CC[C@H]1CC[C@@](c2cc(F)ccc2F)(S(=O)(=O)c2ccc(Cl)cc2)CC1 [MK-0752] (0.1 nM) ?
99.9

Quick check: normalised viability of CC(C)C(=O)Nc1ccc([N+](=O)[O-])c(C(F)(F)F)c1 [Flutamide] (1 nM) ?
118

---

- Test system: SK-BR-3
- method: drug sensitivity score (DSS), CellTiter-Glo (DSS (AUC-based score)); higher = stronger drug effect (viability inhibition or cytotoxicity); extreme values may be limits of the assay
- recordedConditions: incubation time: 72 h
measuredProperty: drug sensitivity score
Answer field: number only, no words.

For orientation, consider the following solved cases.
molecule	drug sensitivity score
Cc1cc2c(F)c(Oc3ncnn4cc(OC[C@@H](C)O)c(C)c34)ccc2[nH]1	0
CC(C)(C)Cn1c(N)nc2ccc(-c3[nH]c(C(C)(C)C)nc3-c3ccc(F)cc3)nc21	0.963

Notebook: pull reported drug sensitivity score for SK-BR-3, entry "COc1cc2c(Oc3ccc(NC(=O)C4(C(=O)Nc5ccc(F)cc5)CC4)cc3F)ccnc2cc1OCCCN1CCOCC1"
0

---

The entries below come with measured drug sensitivity score values attached.
- Tested on: MDA-MB-436
- method: drug sensitivity score (DSS), CellTiter-Blue viability (DSS (AUC-based score)); higher = stronger viability inhibition; extreme values may be limits of the assay
- recordedConditions: incubation time: 72 h
Answer field: number only, no words.

For orientation, consider the following solved cases.
compound	measuredProperty	reading
CC(C)C(=O)Nc1ccc([N+](=O)[O-])c(C(F)(F)F)c1 [Flutamide]	drug sensitivity score	0
Nc1nc(Cl)nc2c1ncn2[C@@H]1O[C@H](CO)[C@@H](O)[C@@H]1F [Clofarabine]	drug sensitivity score	11.8
CN1CCN(c2nc(C3=C(c4c[nH]c5ccccc45)C(=O)NC3=O)c3ccccc3n2)CC1 [Sotrastaurin]	drug sensitivity score	0
N[C@@H](Cc1ccc(N(CCCl)CCCl)cc1)C(=O)O [Melphalan]	drug sensitivity score	0

Consider now this further compound.
Quick check: drug sensitivity score of CCCCCOC(=O)Nc1nc(=O)n([C@@H]2O[C@H](C)[C@@H](O)[C@H]2O)cc1F [Capecitabine] ?
0

---

- System: CAL-51
- recordedConditions: 72 h
The entries below come with measured EC50, CellTox Green values attached.

For orientation, consider the following solved cases.
recordSmiles	EC50, CellTox Green
CO[C@H](C(=O)[C@@H](O)[C@@H](C)O)[C@@H]1Cc2cc3cc(O[C@H]4C[C@@H](O[C@@H]5C[C@@H](O)[C@H](O)[C@@H](C)O5)[C@H](O)[C@@H](C)O4)c(C)c(O)c3c(O)c2C(=O)[C@H]1O[C@H]1C[C@@H](O[C@@H]2C[C@@H](O)[C@@H](O[C@@H]3C[C@](C)(O)[C@H](O)[C@@H](C)O3)[C@@H](C)O2)[C@H](O)[C@@H](C)O1	2.12 µM
CN1CCc2c(c3ccccc3n2Cc2ccc(C(=O)NO)cc2)C1	2.22 µM
Nc1nc(Cl)nc2c1ncn2[C@@H]1O[C@H](CO)[C@@H](O)[C@@H]1F	0.108 µM
COc1cc2c(cc1-c1c(C)noc1C)ncc1[nH]c(=O)n([C@H](C)c3ccccn3)c12	1.74 µM

Notebook: pull reported EC50, CellTox Green for CAL-51, entry "CC(C)NC[C@@H](C(=O)N1CCN(c2ncnc3c2[C@H](C)C[C@H]3O)CC1)c1ccc(Cl)cc1"
1.15 µM

---

- Test system: CAL-85-1
- method: normalised response (% of control), CellTiter-Glo; higher = more viable cells (100 = DMSO, 0 = benzethonium chloride kill control)
- recordedConditions: incubation time: 72 h
measuredProperty: normalised response (%)
# number only, unit % dropped from output

For orientation, consider the following solved cases.
compound	targetOfAssay	reading
C[C@]12C=CC(=O)C=C1CC[C@@H]1[C@@H]2C(=O)C[C@@]2(C)[C@H]1CC[C@]2(O)C(=O)CO [Prednisone] (10000 nM)	CAL-85-1	98.6
CC(C)C(=O)Nc1ccc([N+](=O)[O-])c(C(F)(F)F)c1 [Flutamide] (10000 nM)	CAL-85-1	90.1
Cc1c(C(=O)Nc2ccc(N3C[C@@H](C)O[C@@H](C)C3)nc2)cccc1-c1ccc(OC(F)(F)F)cc1 [Erismodegib] (10000 nM)	CAL-85-1	91.8
CC[C@H](CC#N)OC(=O)N[C@@H](C)c1cccc(NC(=O)Nc2ccc(-c3cnco3)c(OC)c2)c1 [AVN944] (10000 nM)	CAL-85-1	38.4
CC(C)n1nc(-c2ccc3oc(N)nc3c2)c2c(N)ncnc21 [INK128] (1000 nM)	CAL-85-1	24.2
COc1cc2c(Oc3ccc(NC(=O)C4(C(=O)Nc5ccc(F)cc5)CC4)cc3F)ccnc2cc1OCCCN1CCOCC1 [Foretinib] (1000 nM)	CAL-85-1	90.3
COc1cc2c(cc1-c1c(C)noc1C)ncc1[nH]c(=O)n([C@H](C)c3ccccn3)c12 [I-BET151] (10000 nM)	CAL-85-1	30.7
NC(=O)NO [Hydroxyurea] (100000 nM)	CAL-85-1	101
CCN(CC)CCOc1ccc(C(=C(Cl)c2ccccc2)c2ccccc2)cc1 [Clomifene] (10000 nM)	CAL-85-1	44.9

Quick check: normalised response of NC1(c2ccc(-c3nc4ccn5c(=O)[nH]nc5c4cc3-c3ccccc3)cc2)CCC1 [MK-2206] (1000 nM) ?
86.1

---

- Tested on: HCC1599
- method: normalised viability (% of control), CellTiter-Blue; higher = more viable cells (100 = DMSO, 0 = benzethonium chloride kill control)
- recordedConditions: incubation time: 72 h
measuredProperty: normalised viability (%)
# number only, unit % dropped from output

compound	measuredProperty	reading
N[C@@H](Cc1ccc(N(CCCl)CCCl)cc1)C(=O)O [Melphalan] (0.099 nM)	normalised viability	96.1
O=NN(CCCl)C(=O)NC1CCCCC1 [Lomustine] (1 nM)	normalised viability	109
CO[C@H]1C[C@@H]2CC[C@@H](C)[C@@](O)(O2)C(=O)C(=O)N2CCCC[C@H]2C(=O)O[C@H]([C@H](C)C[C@@H]2CC[C@@H](O)[C@H](OC)C2)CC(=O)[C@H](C)/C=C(\C)[C@@H](O)[C@@H](OC)C(=O)[C@H](C)C[C@H](C)/C=C/C=C/C=C/1C [Sirolimus] (0.1 nM)	normalised viability	91.9

Consider now this further compound.
Quick check: normalised viability of C[C@@H]1C[C@H]2[C@@H]3CCC4=CC(=O)C=C[C@]4(C)[C@@]3(F)[C@@H](O)C[C@]2(C)[C@@]1(O)C(=O)CO [Dexamethasone] (1 nM) ?
84
